Quick reference: pEC50 of the listed items.
Biological target: PCSK9 (Homo sapiens, UniProt Q8NBP7, G670E/V474I)
Sequence (Q8NBP7 with tags, fused parts or gaps V474I/G670E): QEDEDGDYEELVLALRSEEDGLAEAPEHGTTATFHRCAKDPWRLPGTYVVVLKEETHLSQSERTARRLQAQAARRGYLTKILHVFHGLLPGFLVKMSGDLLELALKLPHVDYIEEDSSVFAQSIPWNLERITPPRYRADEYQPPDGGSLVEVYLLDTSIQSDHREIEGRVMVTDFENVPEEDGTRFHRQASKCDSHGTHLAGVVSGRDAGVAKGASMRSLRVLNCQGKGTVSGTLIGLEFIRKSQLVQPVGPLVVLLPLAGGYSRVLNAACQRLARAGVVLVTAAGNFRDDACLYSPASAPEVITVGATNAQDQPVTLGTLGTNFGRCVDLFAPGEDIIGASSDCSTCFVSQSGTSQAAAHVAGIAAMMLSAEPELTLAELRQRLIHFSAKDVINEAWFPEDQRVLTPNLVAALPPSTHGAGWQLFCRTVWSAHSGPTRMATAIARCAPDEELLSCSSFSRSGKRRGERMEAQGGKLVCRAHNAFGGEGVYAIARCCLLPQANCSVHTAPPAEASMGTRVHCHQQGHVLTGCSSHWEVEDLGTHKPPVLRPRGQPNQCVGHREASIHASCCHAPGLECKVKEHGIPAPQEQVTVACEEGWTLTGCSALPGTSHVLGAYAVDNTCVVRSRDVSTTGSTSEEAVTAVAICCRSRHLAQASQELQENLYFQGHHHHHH
Assay: Assay 3 PCSK9 LDL-C uptake assay in HepG2 cells
Conditions: 125 nM PCSK9, pHrodo Red-LDL, read-out: Assay 3 LDL uptake potency
Keep in mind that pEC50 stands for -log10 of concentration in molar terms.

Here is how some compounds turned out for pEC50.
[
  {
    "compoundStructure": "Cc1cnc(N[C@H]2CC[C@H](Nc3ccc(-n4cc(-c5cn[nH]c5)ccc4=O)cn3)C2)nn1",
    "measurementTarget": "PCSK9 (Homo sapiens, UniProt Q8NBP7, G670E/V474I)",
    "pEC50": 7.00
  },
  {
    "compoundStructure": "COc1ccc(=O)n(-c2ccc(N[C@H]3CC[C@H](Nc4ncc(C)nn4)C3)nc2)c1",
    "measurementTarget": "PCSK9 (Homo sapiens, UniProt Q8NBP7, G670E/V474I)",
    "pEC50": 6.40
  },
  {
    "compoundStructure": "N#Cc1cccn(-c2ccc(N[C@H]3CC[C@H](Nc4ncc(C(=O)NC5COC5)nn4)C3)nc2)c1=O",
    "measurementTarget": "PCSK9 (Homo sapiens, UniProt Q8NBP7, G670E/V474I)",
    "pEC50": 7.00
  }
]

// returns reported pEC50 for input Cc1cnc(N[C@H]2CC[C@H](Nc3ccc(-n4cccc(-c5c[nH]nn5)c4=O)cn3)C2)nn1
7.00

###

Quick reference: IC50 of the listed items.
Biological target: UniProt:Q12809
Sequence (Q12809 whole entry): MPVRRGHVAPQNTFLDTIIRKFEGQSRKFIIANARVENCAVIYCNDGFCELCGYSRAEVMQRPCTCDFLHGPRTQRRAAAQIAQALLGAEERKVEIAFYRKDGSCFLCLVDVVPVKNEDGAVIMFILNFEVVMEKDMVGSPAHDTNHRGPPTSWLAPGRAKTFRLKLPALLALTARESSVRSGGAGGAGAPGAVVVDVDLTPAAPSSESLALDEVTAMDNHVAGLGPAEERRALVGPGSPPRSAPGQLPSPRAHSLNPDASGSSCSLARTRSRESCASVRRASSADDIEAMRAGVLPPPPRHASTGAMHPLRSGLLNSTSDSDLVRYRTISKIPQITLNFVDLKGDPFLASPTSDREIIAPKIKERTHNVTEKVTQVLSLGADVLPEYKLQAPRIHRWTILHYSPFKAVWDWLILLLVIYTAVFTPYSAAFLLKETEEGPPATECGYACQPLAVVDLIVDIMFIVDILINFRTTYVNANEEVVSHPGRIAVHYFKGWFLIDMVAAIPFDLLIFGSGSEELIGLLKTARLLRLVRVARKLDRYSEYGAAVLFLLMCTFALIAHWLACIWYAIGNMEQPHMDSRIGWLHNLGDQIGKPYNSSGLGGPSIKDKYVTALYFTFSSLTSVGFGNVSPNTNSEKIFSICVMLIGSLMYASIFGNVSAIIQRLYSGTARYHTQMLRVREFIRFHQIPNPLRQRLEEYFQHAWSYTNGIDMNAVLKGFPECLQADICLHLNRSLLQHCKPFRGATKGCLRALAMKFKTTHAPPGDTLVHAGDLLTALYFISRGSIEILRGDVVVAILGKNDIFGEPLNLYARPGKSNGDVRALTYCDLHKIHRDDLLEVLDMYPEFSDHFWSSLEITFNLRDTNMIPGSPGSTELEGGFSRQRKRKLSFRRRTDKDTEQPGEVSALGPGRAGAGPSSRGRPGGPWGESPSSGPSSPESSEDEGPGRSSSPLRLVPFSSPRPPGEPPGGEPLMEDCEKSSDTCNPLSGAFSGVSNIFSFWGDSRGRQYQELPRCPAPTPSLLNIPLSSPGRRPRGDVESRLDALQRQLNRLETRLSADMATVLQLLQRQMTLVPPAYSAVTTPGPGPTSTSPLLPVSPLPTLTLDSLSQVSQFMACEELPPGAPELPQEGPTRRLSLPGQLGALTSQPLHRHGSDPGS
Experiment: Assay 5 hERG assay (patch clamp, CHO cells over-expressing hERG)
Conditions: SyncroPatch 384PE, room temperature, geometric mean, read-out: Assay 5 (hERG Hu CHO if EPh CR-Syncro) GMean IC50

Here is how some molecules turned out for IC50.
[
  {
    "molecule": "Cc1cnc(N[C@H]2CC[C@H](Nc3ccc(-c4ncccc4C)cn3)C2)nn1 [Example 248]",
    "IC50": "> 40.1 µM"
  },
  {
    "molecule": "Cc1cnc(N[C@H]2CC[C@H](Nc3ccc(-n4cccc(Cl)c4=O)cn3)C2)nn1 [Example 129]",
    "IC50": "> 40 µM"
  },
  {
    "molecule": "Cc1cnc(N[C@H]2CC[C@H](Nc3ccc(-n4c(C)nc(C)c4C#N)cn3)C2)nn1 [Example 250]",
    "IC50": "> 40.1 µM"
  },
  {
    "molecule": "Cc1cnc(N[C@H]2CC[C@H](Nc3ccc(-n4ncc5ccccc54)cn3)C2)nn1 [Example 311]",
    "IC50": "7.6 µM"
  },
  {
    "molecule": "N#Cc1ccc(F)c(-c2ccc(N[C@H]3CC[C@H](Nc4ncc(C5CC5)nn4)C3)nc2)n1 [Example 61]",
    "IC50": "5.6 µM"
  }
]

// returns reported IC50 for input C#CCN(C)C(=O)c1cnc(N[C@H]2CC[C@H](Nc3ccc(-n4ccccc4=O)cn3)C2)nn1 [Example 152]
> 40.1 µM

// returns reported IC50 for input COc1cccnc1-c1ccc(N[C@H]2CC[C@H](Nc3ncc(C)nn3)C2)nc1 [Example 304]
> 40.1 µM

// returns reported IC50 for input CNC(=O)c1cnc(N[C@H]2CC[C@H](Nc3ccc(-n4ccccc4=O)cn3)C2)nn1 [Example 75]
> 40 µM

// returns reported IC50 for input CN1CC(=O)N(c2ccc(N[C@H]3CC[C@H](Nc4ncc(C5CC5)nn4)C3)nc2)C1=O [Example 57]
> 40 µM

// returns reported IC50 for input Cc1cnc(N[C@H]2CC[C@H](Nc3ccc(-n4c(=O)n(C)c5cc(C#N)ccc54)cn3)C2)nn1 [Example 211]
16.5 µM

// returns reported IC50 for input Cc1cnc(N[C@H]2CC[C@H](Nc3ccc(-n4cccc(OC(F)F)c4=O)cn3)C2)nn1 [Example 187]
> 40.1 µM

// returns reported IC50 for input O=C(NC1COC1)c1cnc(N[C@H]2CC[C@H](Nc3ccc(-n4cc(Cl)ccc4=O)cn3)C2)nn1 [Example 158]
> 40.1 µM

###

Target: PCSK9 (Homo sapiens, UniProt Q8NBP7, G670E/V474I)
Assay: biochemical
measuredMetric: IC50 (nM)
The response must be a number in nM with no trailing unit.

// returns reported IC50 for input Cc1cnc(N[C@H]2CC[C@H](Nc3ccc(-n4ccc(C#N)cc4=O)cn3)C2)nn1
30

// returns reported IC50 for input Cc1cnc(N[C@H]2CC[C@H](Nc3ccc(-n4cccc(C)c4=O)cn3)C2)nn1 (racemic) [Example 173]
4.2

// returns reported IC50 for input Cc1cnc(N[C@H]2CC[C@H](Nc3ccc(-n4nc(C)nc4C)cn3)C2)nn1
16

// returns reported IC50 for input O=c1c(Cl)cccn1-c1ccc(N[C@H]2CC[C@H](Nc3ncc(C4CC4)nn3)C2)nc1
1

###

Target: PCSK9 (Homo sapiens, UniProt Q8NBP7, G670E/V474I)
Test: biochemical
Quick reference: pIC50 of the listed items.
Keep in mind that pIC50 stands for -log10 of concentration in molar terms.

Here is how some molecules turned out for pIC50.
[
  {
    "molecule": "Cn1c(=O)n(-c2ccc(N[C@H]3CC[C@H](Nc4ncc(C5CC5)nn4)C3)nc2)c2cc(P(C)(C)=O)ccc21 [Example 125]",
    "pIC50": 8.57
  },
  {
    "molecule": "C#CCN(C)C(=O)c1cnc(N[C@H]2CC[C@H](Nc3ccc(-n4ccccc4=O)cn3)C2)nn1 [Example 152]",
    "pIC50": 6.61
  },
  {
    "molecule": "O=c1ccccn1-c1ccc(N[C@H]2CC[C@H](Nc3ncc(-c4ccn[nH]4)nn3)C2)nc1 [Example 257]",
    "pIC50": 7.21
  },
  {
    "molecule": "COc1cccn(-c2ccc(N[C@H]3CC[C@H](Nc4ncc(C5CC5)nn4)C3)nc2)c1=O [Example 64]",
    "pIC50": 8.82
  }
]

// returns reported pIC50 for input COc1c(-c2nnn[nH]2)ccc(F)c1-c1ccc(N[C@H]2CC[C@H](Nc3ncc(C4CC4)nn3)C2)nc1 [Example 169]
7.57

// returns reported pIC50 for input Cc1cnc(N[C@H]2CC[C@H](Nc3ccc(-n4cccc(-c5c[nH]nn5)c4=O)cn3)C2)nn1 [Example 200]
8.60

// returns reported pIC50 for input CN1C(=O)CN(c2ccc(N[C@H]3CC[C@H](Nc4ncc(C5CC5)nn4)C3)nc2)C1=O [Example 62]
8.19

###

Lab note: IC50 readings collected with GSK3β (Glycogen synthase kinase-3 beta) (Homo sapiens, UniProt P49841) for the following compounds.
Sequence (P49841 whole entry): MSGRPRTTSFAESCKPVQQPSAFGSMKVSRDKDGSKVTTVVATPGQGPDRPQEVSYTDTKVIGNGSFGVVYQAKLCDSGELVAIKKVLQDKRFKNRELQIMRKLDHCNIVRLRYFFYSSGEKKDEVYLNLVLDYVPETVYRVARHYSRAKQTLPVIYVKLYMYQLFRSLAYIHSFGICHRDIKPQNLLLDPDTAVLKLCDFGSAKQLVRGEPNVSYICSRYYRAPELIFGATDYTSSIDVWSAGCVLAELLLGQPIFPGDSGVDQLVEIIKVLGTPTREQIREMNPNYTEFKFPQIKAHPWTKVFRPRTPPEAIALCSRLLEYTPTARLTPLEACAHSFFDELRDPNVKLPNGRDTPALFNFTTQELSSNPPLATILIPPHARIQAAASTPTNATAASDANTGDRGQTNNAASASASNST
The response must be a number in µM with no trailing unit.

Here is how some compounds turned out for IC50.
[
  {
    "compound": "Cc1nnc(N[C@H]2CC[C@H](Nc3ccc(-n4ccccc4=O)cn3)C2)[nH]c1=O [Example 254]",
    "IC50, µM": 6.14
  },
  {
    "compound": "O=c1ccc(-c2nnn[nH]2)cn1-c1ccc(N[C@H]2CC[C@H](Nc3ncc(C4CC4)nn3)C2)nc1 [Example 124]",
    "IC50, µM": 1.07
  },
  {
    "compound": "NC(=O)c1cnc(N[C@H]2CC[C@H](Nc3ccc(-n4ccccc4=O)cn3)C2)nn1 [Example 74]",
    "IC50, µM": 8.3
  },
  {
    "compound": "COc1cccn(-c2ccc(N[C@H]3CC[C@H](Nc4ncc(C5CC5)nn4)C3)nc2)c1=O [Example 64]",
    "IC50, µM": 0.385
  },
  {
    "compound": "CN(C)c1cnc(N[C@H]2CC[C@H](Nc3ccc(-n4ccccc4=O)cn3)C2)nn1 [Example 256]",
    "IC50, µM": 1.68
  }
]

Short answer please: IC50, GSK3β (Glycogen synthase kinase-3 beta) (Homo sapiens, UniProt P49841), entry COc1c(-c2nnn[nH]2)ccc(F)c1-c1ccc(N[C@H]2CC[C@H](Nc3ncc(C4CC4)nn3)C2)nc1 [Example 169]
0.31

Short answer please: IC50, GSK3β (Glycogen synthase kinase-3 beta) (Homo sapiens, UniProt P49841), entry Cc1cnc(N[C@H]2CC[C@H](Nc3ccc(-n4cccc(C)c4=O)cn3)C2)nn1 (racemic) [Example 173]
1.95

Short answer please: IC50, GSK3β (Glycogen synthase kinase-3 beta) (Homo sapiens, UniProt P49841), entry COc1ccc(=O)n(-c2ccc(N[C@H]3CC[C@H](Nc4ncc(C5CC5)nn4)C3)nc2)c1 [Example 65]
0.014

Short answer please: IC50, GSK3β (Glycogen synthase kinase-3 beta) (Homo sapiens, UniProt P49841), entry COc1ccc(=O)n(-c2ccc(N[C@H]3CC[C@H](Nc4ncc(C)nn4)C3)nc2)c1 [Example 133]
0.032

Short answer please: IC50, GSK3β (Glycogen synthase kinase-3 beta) (Homo sapiens, UniProt P49841), entry COc1cccn(-c2ccc(N[C@H]3CC[C@H](Nc4ncc(C)nn4)C3)nc2)c1=O [Example 132]
2.06

Where do the numbers come from? From patent US20240228469A1.
